run description: Accelerated stability test
Type: physicochemical
condition set: storage 75% relative humidity; Month 3; 40°C ± 2°C, relative humidity 75% ± 5%; read-out: Content
Reported remaining at 2190 h values for a set of compounds
Write it as a number; the unit % goes unstated.

compound="O=C1Cc2ccccc2C(=C2CCN(CCCCOCOP(=O)(O)O)CC2)c2ccsc21 [Compound IV-8]" endpoint_value=99.6
compound="O=C1Cc2ccccc2C(=C2CCN(CCCOP(=O)(O)O)CC2)c2ccsc21 [Compound III-3]" endpoint_value=99.5
compound="O=C1Cc2ccccc2C(=C2CCN(CCCOCOP(=O)(O)O)CC2)c2ccsc21 [Compound III-7]" endpoint_value=99.5
compound="O=C1Cc2ccccc2C(=C2CCN(COP(=O)(O)O)CC2)c2ccsc21 [Compound IV-1]" endpoint_value=99.6
compound="O=C1Cc2ccccc2C(=C2CCN(CCCCOP(=O)(O)O)CC2)c2ccsc21 [Compound IV-4]" endpoint_value=99.6
compound="O=C1Cc2ccccc2C(=C2CCN(CCOP(=O)(O)O)CC2)c2ccsc21 [Compound IV-2]" endpoint_value=99.6

Please turn your attention to the following entry.
Inquiry: Given the entry O=C1Cc2ccccc2C(=C2CCN(CCOCOP(=O)(O)O)CC2)c2ccsc21 [Compound IV-6] , report its measured remaining at 2190 h.
Reply text: 99.6
